Consider the following molecules and their measured IC50 readings.
- study_target: ATM (Homo sapiens)
- Construct: detecting phosphorylation of Chk2 in a human non-small cell lung cancer cell line NCI-H460 (ATCC company); host or cells: NCI-H460 human non-small cell lung cancer cells
- Sequence (Q13315 whole entry): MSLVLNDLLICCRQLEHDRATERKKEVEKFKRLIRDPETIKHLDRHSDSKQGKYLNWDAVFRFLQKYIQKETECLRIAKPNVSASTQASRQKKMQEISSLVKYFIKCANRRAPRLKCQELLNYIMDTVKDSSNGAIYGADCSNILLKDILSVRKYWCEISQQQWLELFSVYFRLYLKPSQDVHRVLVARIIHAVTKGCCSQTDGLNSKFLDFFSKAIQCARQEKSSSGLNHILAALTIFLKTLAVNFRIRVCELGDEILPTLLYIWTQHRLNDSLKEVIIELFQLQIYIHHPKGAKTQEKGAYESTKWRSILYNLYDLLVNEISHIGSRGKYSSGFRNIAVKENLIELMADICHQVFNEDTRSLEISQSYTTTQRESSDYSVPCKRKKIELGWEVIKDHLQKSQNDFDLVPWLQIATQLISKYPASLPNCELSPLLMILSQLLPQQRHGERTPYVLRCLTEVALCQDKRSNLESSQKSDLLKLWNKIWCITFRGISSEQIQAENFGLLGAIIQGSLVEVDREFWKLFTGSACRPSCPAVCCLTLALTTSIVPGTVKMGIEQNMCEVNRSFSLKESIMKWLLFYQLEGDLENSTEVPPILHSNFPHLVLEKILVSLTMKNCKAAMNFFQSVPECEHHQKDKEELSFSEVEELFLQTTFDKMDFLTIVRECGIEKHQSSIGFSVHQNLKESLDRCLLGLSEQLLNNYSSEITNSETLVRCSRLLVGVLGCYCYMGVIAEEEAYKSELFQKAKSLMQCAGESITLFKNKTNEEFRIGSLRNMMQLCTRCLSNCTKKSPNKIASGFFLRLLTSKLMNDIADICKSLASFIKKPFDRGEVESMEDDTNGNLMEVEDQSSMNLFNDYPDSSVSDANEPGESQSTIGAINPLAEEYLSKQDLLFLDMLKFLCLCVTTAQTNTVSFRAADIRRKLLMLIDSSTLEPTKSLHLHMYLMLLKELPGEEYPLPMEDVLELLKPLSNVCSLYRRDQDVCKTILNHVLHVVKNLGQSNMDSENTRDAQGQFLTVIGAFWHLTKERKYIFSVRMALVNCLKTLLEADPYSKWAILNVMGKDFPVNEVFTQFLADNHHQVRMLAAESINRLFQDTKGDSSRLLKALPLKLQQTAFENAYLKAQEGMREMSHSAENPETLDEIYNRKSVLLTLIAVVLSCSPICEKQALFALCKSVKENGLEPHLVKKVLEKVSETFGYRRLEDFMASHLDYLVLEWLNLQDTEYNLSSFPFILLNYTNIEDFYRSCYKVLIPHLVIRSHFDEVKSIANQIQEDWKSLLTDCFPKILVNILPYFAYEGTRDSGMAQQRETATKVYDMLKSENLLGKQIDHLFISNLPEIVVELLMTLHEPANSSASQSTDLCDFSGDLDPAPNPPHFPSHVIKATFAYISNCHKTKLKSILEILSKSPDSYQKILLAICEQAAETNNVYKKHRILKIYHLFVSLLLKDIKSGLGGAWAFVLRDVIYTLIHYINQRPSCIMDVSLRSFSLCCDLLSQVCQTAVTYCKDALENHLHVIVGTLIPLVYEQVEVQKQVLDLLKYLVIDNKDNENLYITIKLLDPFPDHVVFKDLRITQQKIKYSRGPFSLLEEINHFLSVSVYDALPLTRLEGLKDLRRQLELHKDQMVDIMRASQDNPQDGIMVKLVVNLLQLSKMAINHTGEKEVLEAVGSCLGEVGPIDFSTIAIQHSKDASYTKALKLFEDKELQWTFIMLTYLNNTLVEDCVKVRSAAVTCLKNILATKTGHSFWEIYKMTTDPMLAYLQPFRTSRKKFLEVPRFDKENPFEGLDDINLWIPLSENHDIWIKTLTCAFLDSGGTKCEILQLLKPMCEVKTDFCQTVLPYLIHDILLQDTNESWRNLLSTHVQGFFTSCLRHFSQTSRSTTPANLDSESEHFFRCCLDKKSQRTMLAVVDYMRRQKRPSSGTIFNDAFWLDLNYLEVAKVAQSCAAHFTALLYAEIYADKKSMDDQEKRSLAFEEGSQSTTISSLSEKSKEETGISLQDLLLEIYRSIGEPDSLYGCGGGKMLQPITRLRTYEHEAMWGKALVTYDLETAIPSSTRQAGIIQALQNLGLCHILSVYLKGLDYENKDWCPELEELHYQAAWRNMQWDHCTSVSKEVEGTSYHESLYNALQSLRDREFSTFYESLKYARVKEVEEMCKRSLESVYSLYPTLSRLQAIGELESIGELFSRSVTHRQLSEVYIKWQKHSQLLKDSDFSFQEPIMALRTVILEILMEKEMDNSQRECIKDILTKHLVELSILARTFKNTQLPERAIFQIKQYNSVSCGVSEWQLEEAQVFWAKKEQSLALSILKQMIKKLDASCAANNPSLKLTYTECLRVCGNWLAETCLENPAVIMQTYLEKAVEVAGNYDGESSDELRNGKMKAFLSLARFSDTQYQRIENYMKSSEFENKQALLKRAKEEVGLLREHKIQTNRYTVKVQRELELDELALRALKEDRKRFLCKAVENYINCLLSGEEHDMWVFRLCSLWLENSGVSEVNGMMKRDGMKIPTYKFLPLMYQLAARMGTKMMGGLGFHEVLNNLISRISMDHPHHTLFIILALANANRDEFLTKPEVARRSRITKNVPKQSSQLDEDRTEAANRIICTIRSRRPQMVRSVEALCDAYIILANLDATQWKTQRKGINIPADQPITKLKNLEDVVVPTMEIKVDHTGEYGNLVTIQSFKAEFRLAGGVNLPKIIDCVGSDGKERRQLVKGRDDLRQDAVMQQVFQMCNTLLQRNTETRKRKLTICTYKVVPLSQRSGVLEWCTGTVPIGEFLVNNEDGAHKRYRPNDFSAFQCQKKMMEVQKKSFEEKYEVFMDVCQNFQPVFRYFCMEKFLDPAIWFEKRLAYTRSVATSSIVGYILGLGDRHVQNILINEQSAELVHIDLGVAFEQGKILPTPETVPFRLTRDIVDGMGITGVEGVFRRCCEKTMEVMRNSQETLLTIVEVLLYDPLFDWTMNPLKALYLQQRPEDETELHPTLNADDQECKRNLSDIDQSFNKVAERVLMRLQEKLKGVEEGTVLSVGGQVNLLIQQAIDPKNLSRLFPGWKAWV
- test_method_notes: ATM inhibition test (phosphorylation of Chk2 generated by ionizing radiation, AlphaScreen SureFire)
- Assay type: cell-based
- experimental_setup: phosphorylated Chk2 in NCI-H460 cells, ionizing radiation 8Gy, 1 hour after test compound treatment; read-out: ATM inhibitory activity

N#CCN1CCC(Nc2ccc3c(c2)Cc2cccc(-c4cc(N5CCOCC5)cc(=O)[nH]4)c2O3)CC1	100 to 500 nM
COc1ccc(CNc2ccc3c(c2)Cc2cc(C)cc(-c4cc(N5CCOCC5)cc(=O)[nH]4)c2O3)cn1	500 to 2000 nM
O=c1cc(N2CCOCC2)cc(-c2cccc3c2Oc2ccc(NCc4cnc5c(c4)OCO5)cc2C3)[nH]1	100 to 500 nM
O=c1cc(N2CCOCC2)cc(-c2cccc3c2Oc2ccc(NC4CCCN(CCc5ccccc5)CC4)cc2S3)[nH]1 (stereo not drawn)	100 to 500 nM
O=c1cc(N2CCOCC2)cc(-c2cccc3c2Sc2ccc(NCc4ccncn4)cc2S3)[nH]1	100 to 500 nM

Any idea what its IC50 is? The molecule is COC1CN(CCC(Nc2ccc3c(c2)Sc2cccc(-c4cc(N5CCOCC5)cc(=O)[nH]4)c2S3)c2ccc(C)cn2)C1 (single isomer, unassigned)
< 100 nM

Another: CC(CN1CCOCC1C)Nc1ccc2c(c1)Sc1cccc(-c3cc(N4CCOCC4)cc(=O)[nH]3)c1S2 (stereo not drawn)
100 to 500 nM

Same question for COCC(CN1CCOCC1)Nc1ccc2c(c1)Sc1cccc(-c3cc(N4CCOCC4)cc(=O)[nH]3)c1S2 (racemic) [Example 1-17-1-1] please.
< 100 nM

Repeat with COCCN(CCOC)C[C@@H](COC)Nc1ccc2c(c1)Sc1cccc(-c3cc(N4CCOCC4)cc(=O)[nH]3)c1S2
100 to 500 nM

Another molecule to look at: Cc1cnc(C(CCN(C)C)Nc2ccc3c(c2)Sc2cccc(-c4cc(=O)cc(N5CCOCC5)o4)c2S3)cn1 (single isomer, unassigned)
< 100 nM

And COc1ncc(CNc2ccc3c(c2)Cc2cccc(-c4cc(N5CCOCC5)cc(=O)[nH]4)c2O3)cn1 ?
< 100 nM
